Molecular target: Recombinant human BACE-1 (Homo sapiens (Human), UniProt P56817)
Sequence (P56817 46-501): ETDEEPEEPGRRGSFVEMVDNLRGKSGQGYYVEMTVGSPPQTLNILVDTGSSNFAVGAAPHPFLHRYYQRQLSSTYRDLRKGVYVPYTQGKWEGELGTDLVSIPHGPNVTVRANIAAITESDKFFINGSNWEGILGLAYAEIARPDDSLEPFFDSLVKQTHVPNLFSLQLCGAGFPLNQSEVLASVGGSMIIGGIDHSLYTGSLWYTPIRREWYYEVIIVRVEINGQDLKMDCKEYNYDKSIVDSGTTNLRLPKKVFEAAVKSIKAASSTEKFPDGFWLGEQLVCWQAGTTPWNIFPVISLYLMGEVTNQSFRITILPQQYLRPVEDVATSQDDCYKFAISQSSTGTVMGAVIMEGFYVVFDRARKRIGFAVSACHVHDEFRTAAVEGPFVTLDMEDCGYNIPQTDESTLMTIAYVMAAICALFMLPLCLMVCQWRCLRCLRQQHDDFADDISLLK
Assay: Assay of β-secretase-inhibiting activity
Conditions: Recombinant human BACE-1 7.4 nM, substrate peptide 18 nM, pH 5.0, 30° C. for 3 hours
readout name: pIC50
Just the number, please; pIC50 means minus log10 of the concentration in mol/L.

// sample Cc1cc(C(=O)Nc2ccc(F)c([C@]3(C)C=CSC(N)=N3)c2)n(C)c1 [Compound 35] , its pIC50 was 7.02

* * *

Biological target: CYP2D6 (Homo sapiens (Human), UniProt P10635)
Sequence (P10635 whole entry): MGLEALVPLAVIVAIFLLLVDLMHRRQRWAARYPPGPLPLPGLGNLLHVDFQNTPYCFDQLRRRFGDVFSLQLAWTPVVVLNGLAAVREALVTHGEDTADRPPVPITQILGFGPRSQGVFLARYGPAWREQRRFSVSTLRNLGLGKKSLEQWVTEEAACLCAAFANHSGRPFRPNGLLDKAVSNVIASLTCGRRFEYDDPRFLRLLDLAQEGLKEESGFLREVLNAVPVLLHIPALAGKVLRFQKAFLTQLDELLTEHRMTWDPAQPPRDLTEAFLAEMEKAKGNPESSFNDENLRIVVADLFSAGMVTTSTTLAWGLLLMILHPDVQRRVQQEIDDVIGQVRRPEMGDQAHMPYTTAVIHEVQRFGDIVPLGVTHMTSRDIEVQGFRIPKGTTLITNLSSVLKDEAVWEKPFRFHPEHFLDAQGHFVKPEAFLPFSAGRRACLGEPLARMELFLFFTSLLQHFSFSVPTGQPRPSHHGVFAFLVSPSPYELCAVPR
readout name: IC50

CYP2D6 (Homo sapiens (Human), UniProt P10635) IC50 of Cc1cc(C(=O)Nc2ccc(F)c([C@]3(C)C=CSC(N)=N3)c2)n(C)c1 is > 20 µM

* * *

Molecular target: CYP2C19 (Homo sapiens (Human), UniProt P33261)
Sequence (P33261 whole entry): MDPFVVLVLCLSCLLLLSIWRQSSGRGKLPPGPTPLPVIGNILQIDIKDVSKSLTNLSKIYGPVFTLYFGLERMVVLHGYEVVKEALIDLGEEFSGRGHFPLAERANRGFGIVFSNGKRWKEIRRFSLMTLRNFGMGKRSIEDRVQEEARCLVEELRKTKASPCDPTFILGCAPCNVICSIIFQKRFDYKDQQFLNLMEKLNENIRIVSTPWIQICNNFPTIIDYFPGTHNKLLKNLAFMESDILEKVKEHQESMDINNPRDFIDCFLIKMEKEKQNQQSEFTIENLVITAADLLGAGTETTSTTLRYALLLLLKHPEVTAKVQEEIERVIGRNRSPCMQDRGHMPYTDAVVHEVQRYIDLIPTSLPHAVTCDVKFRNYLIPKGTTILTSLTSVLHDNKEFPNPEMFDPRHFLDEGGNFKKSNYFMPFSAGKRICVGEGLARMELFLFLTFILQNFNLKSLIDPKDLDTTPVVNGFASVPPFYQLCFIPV
pIC50: −log10 of the molar value.
readout name: pIC50

// sample Cc1cc(C(=O)Nc2ccc(F)c([C@]3(C)C=CSC(N)=N3)c2)n(C)c1 [Compound 35] , its pIC50 was < 4.70

Data credit: patent US9273053B2
